All figures here come from patent US20140289906A1.

Test: 14C assay: 14CO2 capture from [14C]-carboxyl-labeled dicamba with IPTG-induced recombinant E. coli cells
Settings: IPTG-induced recombinant E. coli cells; 14CO2 from [14C]-carboxyl-labeled dicamba
measured_metric: Dicamba Decarboxylase Activity

[[record]]
molecule = "102 (protein, listed as Lactobacillus plantarum) MATKTFKTLDDFLGTHFIYTYDNGWEYEWYAKNDHTVDYRIHGGMVAGRWVTDQKADIVMLTEGIYKISWTEPTGTDVALDFMPNEKKLHGTIFFPKWVEEHPEITVTYQNEHIDLMEQSREKYATYPKLVVPEFANITYMGDAGQNNEDVISEAPYKEMPNDIRNGKYFDQNYHRLNK"
obs_value = "No"

[[record]]
molecule = "103 (protein, Plasmodium yoelii yoelii) MAMEIPTEEIKFLKKEDVQNIDLNGMSKKERYEIWRRIPKVELHCHLDLTFSAEFFLKWARKYNLQPNMSDDEILDHYLFTKEGKSLAEFIRKAISVSDLYRDYDFIEDLAKWAVIEKYKEGVVLMEFRYSPTFVSSSYGLDVELIHKAFIKGIKNATELLNNKIHVALICISDTGHAAASIKHSGDFAIKHKHDFVGFDHGGREIDLKDHKDVYHSVRDHGLHLTVHAGEDATLPNLNTLYTAINILNVERIGHGIRVSESDELIELVKKKDILLEVCPISNLLLNNVKSMDTHPIRKLYDAGVKVSVNSDDPGMFLSNINDNYEKLYIHLNFTLEEFMIMNNWAFEKSFVSDDVKSELKALYF"
obs_value = "No"

[[record]]
molecule = "27 (protein, listed as Aspergillus oryzae) MALGKIALEEAFALPRFEEKTRWWASLFSTDAETHVKEITDINKIRIEHADKHGVGYQILSYTAPGVQDIWDPVEAQALAVEINDYIAEQVRVNPDRFGAFATLSMHNPKEAADELRRCVEKYGFKGALVNDTQRAGPDGDDMIFYDNADWDIFWQTCTELDVPFYMHPRNPTGTIYEKLWADRKWLVGPPLSFAHGVSLHVLGMVTNGVFDRHPKLQIIMGHLGEHVPFDMWRINHWFEDRKKLLGLAETCKKTIRDYFAENIWITTSGHFSTTTLNFCMAEVGSDRILFSIDYPFETFSDACEWFDNAELNGTDRLKIGRENAKKLFKLDSYKDSSA"
obs_value = "No"

[[record]]
molecule = "94 (protein, listed as Bacillus thuringiensis) MANRGDSNMKSLVGVIMGSTSDWETMKYACDILDELNIPYEKKVVSAHRTPDYMFEYAETARERGLKVIIAGAGGAAHLPGMVAAKTNLPVIGVPVQSKALNGLDSLLSIVQMPGGVPVATVAIGKAGSTNAGLLAAQILGSFHDDIHDALELRREAIEKDVREGSELV"
obs_value = "No"

[[record]]
molecule = "1 (protein, listed as Rhizobium sp.) MAQGKVALEEHFAIPETLQDSAGFVPGDYWKELQHRLLDIQDTRLKLMDAHGIETMILSLNAPAVQAIPDRRKAIEIARRANDVLAEECAKRPDRFLAFAALPLQDPDAATEELQRCVNDLGFVGALVNGFSQEGDGQTPLYYDLPQYRPFWGEVEKLDVPFYLHPRNPLPQDSRIYDGHPWLLGPTWAFAQETAVHALRLMASGLFDEHPRLNIILGHMGEGLPYMMWRIDHRNAWVKLPPRYPAKRRFMDYFNENFHITTSGNFRTQTLIDAILEIGADRILFSTDWPFENIDHASDWFNATSIAEADRVKIGRTNARRLFKLDGA"
obs_value = "High"

[[record]]
molecule = "82 (protein, listed as Rhodopseudomonas palustris) MAQNETPVIAIEEHYWDPEMVARFPAGENASPFSTLLTELGDVRLRAMDEAGIDVQVLSHGAPAAQKLPPDVAPELTRRVNDRLAEACARFPNRFAAFAALPTPAPEAAARELERCVRDLGFKGAMIHGLTNGLFIDDKRFWPIFEVAEKLDVPIYLHPSVPHADVTRYYYDDYAREFPTVIRPAWGFTVETATQAIRLILSRALESYPRLQIILGHLGETLPFLLWRINQALARPGQTPLDFRKQFCDHFHVTTSGFFSTPALICTMLELGIDRIMFAVDYPYVVNRDGTDWVQQLQISPDDKRKLVGGNARRLLKL"
obs_value = "Low"

[[record]]
molecule = "59 (protein, alpha proteobacterium) MAPSVIDAHAHFLPGSLVTALRSRSDAPDIRTDSNGGESFGIYRTRMPYGRTYDALDVRLARMDELGVDRQILSLPGLFGIDSRPVSQALPLVRAFNDGVADLVRKHPDRFSGIAALPLADLDAAQEEYRRARGDLGLSGLILPGDTFVSVAAAERVRPLFELAATIGGLIFVHPGPLPDETGSAVDAPAPHTDSVVHRRVTVDIQNRMTEVMVTLALTDFLAPYPSVPVQVANLGGSLPFVIERMDHVYALRNPEAPPPSLSLRSLYVDAASLGPRAIALAAEVYGADRVLFGSDYPIFDDGRCLDAVRQTRLSPDARALIAGGNAARMLTQT"
obs_value = "No"

[[record]]
molecule = "20 (protein, listed as Legionella pneumophila) MAIVDFETHFITEACIDYLTQRQEVPKLVPDLNGAYTMCFTPDVSLFHTSALMEELLSLNEQRLAIMDQAGVTIQVLSLTTINGIDSCPGDENKSTALAREVNDQLYSAIQRHPERFKGFASISPYDVKEGVKELERAISQLGFVGWLTHSNFGQDNYLDDKTYWPLLEAAEGLNIPIYLHPNVPIMREFGKYGFALGGSALGFEFDTALCLMRMILGGVFDAFPKLKIMLGHLGETMPFLMERLDHLYRIPDLKAYRPSIQRIPSEVLRQNVYITTSGRFFVPALRYVLEVMGEDRVLFASDYPMESLLDATRFIQDSDLSNQTKQKIFSINAKNLNLI"
obs_value = "Low"

